- tested.on: T1, RXFP1 receptor (UniProt Q9HBX9 1-757, limits assumed)
- T1 sequence (looked up): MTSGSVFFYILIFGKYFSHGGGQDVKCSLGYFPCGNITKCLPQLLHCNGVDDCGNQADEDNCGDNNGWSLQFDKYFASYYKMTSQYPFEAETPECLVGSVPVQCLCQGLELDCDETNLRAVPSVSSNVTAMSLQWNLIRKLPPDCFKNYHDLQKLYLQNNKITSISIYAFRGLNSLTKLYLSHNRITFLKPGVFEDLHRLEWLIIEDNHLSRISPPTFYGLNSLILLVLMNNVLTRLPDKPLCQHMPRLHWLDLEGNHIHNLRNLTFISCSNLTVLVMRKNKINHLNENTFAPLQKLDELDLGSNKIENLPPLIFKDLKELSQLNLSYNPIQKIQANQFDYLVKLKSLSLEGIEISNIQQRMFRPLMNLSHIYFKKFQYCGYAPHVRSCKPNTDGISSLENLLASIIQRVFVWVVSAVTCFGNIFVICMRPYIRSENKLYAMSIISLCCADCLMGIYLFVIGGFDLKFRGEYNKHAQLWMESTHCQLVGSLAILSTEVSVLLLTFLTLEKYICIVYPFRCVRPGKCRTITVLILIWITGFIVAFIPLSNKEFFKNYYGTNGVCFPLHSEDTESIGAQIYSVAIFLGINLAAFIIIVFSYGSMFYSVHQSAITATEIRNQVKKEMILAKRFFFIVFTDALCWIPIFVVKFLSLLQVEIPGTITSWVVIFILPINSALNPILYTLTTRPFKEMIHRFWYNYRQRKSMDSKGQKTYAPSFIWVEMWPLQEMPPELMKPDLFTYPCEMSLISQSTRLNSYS
- assay.protocol: cell-based or functional assay
*1 amine or outer side, *2 acyl side, *3 side chain or, on linkers, in order; H or OH if unused. Primed or numbered codes have the meaning given here. Side-chain parts run from the residue outwards. [ ]: non-standard residue; d: D form. The star is where a group is joined. γGlu = O=C(O)[C@H](CCC(=O)[*:2])N[*:1]; Stearoyl = CCCCCCCCCCCCCCCCCC(=O)*; Nle = CCCC[C@H](N)C(=O)O; PEG2′ = PEG2 spacer unit; PEG2″ = not defined here; Aib = CC(C)(N)C(=O)O
Each item that follows carries a reported EMax, OVCAR 5 cells (cAMP).
readout.type: EMax, OVCAR 5 cells (cAMP) (%)

[[record]]
binder = "Ac-LEGREKVRAQI[Aib][Aib]EG[Nle]STWS[Aib]RKKK([PEG2″-PEG2″-PEG2″-γGlu-γGlu-γGlu-Stearoyl])-NH2 [peptide of SEQ ID NO: 75]"
readout_type = "EMax, OVCAR 5 cells (cAMP)"
readout_unit = "%"
numeric_result = 88

[[record]]
binder = "Ac-LEGREKVRAQI[Aib][Aib]EG[Nle]STWS[Aib]RKKK([γGlu-γGlu-PEG2″-PEG2″-PEG2″-γGlu-Stearoyl])-NH2 [peptide of SEQ ID NO: 106]"
readout_type = "EMax, OVCAR 5 cells (cAMP)"
readout_unit = "%"
numeric_result = 93

[[record]]
binder = "Ac-LEGREKVRAK(Ac)I[Aib][Aib]EG[Nle]STWS[Aib]AAK(Ac)K([PEG2′-PEG2′-PEG2′-γGlu-γGlu-γGlu-Stearoyl])-NH2 [peptide of SEQ ID NO: 155]"
readout_type = "EMax, OVCAR 5 cells (cAMP)"
readout_unit = "%"
numeric_result = 95

[[record]]
binder = "Ac-LEGREKVRAK(Ac)I[Aib][Aib]EG[Nle]STWS[Aib]RKK(Ac)K([PEG2″-PEG2″-γGlu-γGlu-PEG2″-γGlu-Stearoyl])-NH2 [peptide of SEQ ID NO: 101]"
readout_type = "EMax, OVCAR 5 cells (cAMP)"
readout_unit = "%"
numeric_result = 86

